# test_system: human EP3 receptor (Homo sapiens, UniProt P43115)
# Construct: expressed in transfected cells; host or cells: CHO-K1
# Sequence (P43115 whole entry): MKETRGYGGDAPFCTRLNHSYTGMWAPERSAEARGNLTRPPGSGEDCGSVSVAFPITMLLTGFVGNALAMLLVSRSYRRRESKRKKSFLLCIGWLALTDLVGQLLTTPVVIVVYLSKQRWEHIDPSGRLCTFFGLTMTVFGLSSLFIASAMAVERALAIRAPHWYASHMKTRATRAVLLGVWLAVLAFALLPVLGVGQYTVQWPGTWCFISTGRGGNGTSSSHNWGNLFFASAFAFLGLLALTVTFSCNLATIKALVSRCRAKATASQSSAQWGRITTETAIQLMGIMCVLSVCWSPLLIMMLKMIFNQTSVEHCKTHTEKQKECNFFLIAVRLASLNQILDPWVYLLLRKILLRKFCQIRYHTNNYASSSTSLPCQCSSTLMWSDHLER
# assay_notes: human EP3 calcium mobilisation assay
# Format: cell-based
# cond: human EP3, CHO-K1 cells, antagonism of PGE2; averages of a number of experiments; read-out: functional pKi value (converted)
# Protocol: Briefly, the antagonist properties of compounds are assessed by their ability to inhibit the mobilisation of intracellular calcium ([Ca^2+]i) in response to activation of EP1 or EP3 receptors by the natural agonist hormone prostaglandin E2 (PGE2). […] The amount of calcium produced is assessed using a calcium-sensitive fluorescent dye such as Fluo-4, AM and a suitable instrument such as a Fluorimetric Imaging Plate Reader (FLIPR). […]
Where a name gives a salt, the structure may show the parent alone.
Ki by entry:

>  <compound>
Clc1ccc(OCc2ccccc2)c(Cc2cccc(-c3nc4cncnc4[nH]3)n2)c1 [Example 33]

>  <Ki>
≤ 1 µM

$$$$
>  <compound>
CC(C)COc1ccc(Cl)cc1Cc1cccc(-c2nc3ccc(CN4CCCC4)cc3[nH]2)n1 [Example 49, hydrochloride]

>  <Ki>
≤ 3.16 µM

$$$$

Prompt: Field: Ki (human EP3 receptor (Homo sapiens, UniProt P43115)). Entry: CC(C)COc1ccc(Cl)cc1Cc1cccc(-c2nc3ccc(CN(C)C)cc3[nH]2)n1 [Example 51]
Completion: ≤ 3.16 µM

Prompt: Next: CC(C)COc1ccc(Cl)cc1Cc1cccc(-c2nc3ncccc3[nH]2)n1 [Example 21, hydrochloride]
Completion: ≤ 3.16 µM

Prompt: Next: CC(C)NC(=O)c1cccc(Cc2cc(Cl)ccc2OCc2ccccc2)n1 [Example 9]
Completion: ≤ 1 µM
